targetDesc: Msmeg (Mycolicibacterium smegmatis, UniProt A0QNE0)
Sequence (A0QNE0 whole entry): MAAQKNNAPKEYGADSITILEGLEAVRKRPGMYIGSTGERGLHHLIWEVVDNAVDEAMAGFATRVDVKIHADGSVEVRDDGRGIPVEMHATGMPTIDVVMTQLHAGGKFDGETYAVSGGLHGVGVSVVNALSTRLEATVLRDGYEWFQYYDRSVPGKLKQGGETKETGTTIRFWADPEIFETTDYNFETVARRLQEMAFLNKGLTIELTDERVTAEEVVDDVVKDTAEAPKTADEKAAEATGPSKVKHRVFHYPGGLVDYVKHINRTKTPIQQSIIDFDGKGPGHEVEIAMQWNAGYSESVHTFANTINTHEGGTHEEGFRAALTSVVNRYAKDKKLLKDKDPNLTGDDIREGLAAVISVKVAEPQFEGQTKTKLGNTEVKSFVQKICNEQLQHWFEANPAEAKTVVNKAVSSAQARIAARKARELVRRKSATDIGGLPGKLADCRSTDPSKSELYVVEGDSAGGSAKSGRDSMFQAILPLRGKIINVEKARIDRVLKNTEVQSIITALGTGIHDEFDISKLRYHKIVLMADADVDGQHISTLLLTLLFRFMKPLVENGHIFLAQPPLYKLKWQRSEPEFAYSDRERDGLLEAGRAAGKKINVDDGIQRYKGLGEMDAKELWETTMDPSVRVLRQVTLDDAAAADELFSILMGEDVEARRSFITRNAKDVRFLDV
experimentalReadout: IC50 (nM)
Value expressed in nM; do not type the unit.

Answered cases to consult:
1. CO[C@H]1CN(c2nc(-c3ncnn3C)c(C(=O)O)s2)CC[C@H]1NC(=O)c1[nH]c(C)c(Cl)c1Br [Example 1]    2.6
2. CO[C@H]1CN(c2nc(-c3nccn3C)c(C(=O)O)s2)CC[C@H]1NC(=O)c1[nH]c(C)c(Cl)c1Br [Example 3]    6

Lookup: So what IC50 did Cc1[nH]c(C(=O)N[C@@H]2CCN(c3nc(-c4ncnn4C)c(C(=O)O)s3)C[C@@H]2F)c(Cl)c1Br [Example 6] get with Msmeg (Mycolicibacterium smegmatis, UniProt A0QNE0)?
Found: 5

###

Heads up, these molecules all have IC50 values measured for Msmeg (Mycolicibacterium smegmatis, UniProt A0QNE0).

Answered cases to consult:
1) CCn1ncnc1-c1nc(N2CC[C@@H](NC(=O)c3[nH]c(C)c(Br)c3Cl)[C@@H](OC)C2)sc1C(=O)O [Example 14]    < 2.5 nM
2) CCn1ncnc1-c1nc(N2CC[C@@H](NC(=O)c3[nH]c(C)c(Cl)c3Br)[C@@H](OC)C2)sc1C(=O)O [Example 13]    < 2.5 nM
3) COCCn1ncnc1-c1nc(N2CC[C@@H](NC(=O)c3[nH]c(C)c(Cl)c3Br)[C@@H](OC)C2)sc1C(=O)O [Example 19]    < 2.5 nM
4) CO[C@H]1CN(c2nc(-c3ncnn3CC3CC3)c(C(=O)O)s2)CC[C@H]1NC(=O)c1[nH]c(C)c(Cl)c1Br [Example 16]    < 2.5 nM
5) CCO[C@H]1CN(c2nc(-c3ncnn3C)c(C(=O)O)s2)CC[C@H]1NC(=O)c1[nH]c(C)c(Cl)c1Br [Example 10]    < 2.5 nM

Now look at this one.
Lookup: So what IC50 did Cc1[nH]c(C(=O)N[C@@H]2CCN(c3nc(-c4ncnn4C)c(C(=O)O)s3)C[C@@H]2F)c(Br)c1Cl [Example 5] get with Msmeg (Mycolicibacterium smegmatis, UniProt A0QNE0)?
Found: < 4 nM

###

targetDesc: Msmeg (Mycolicibacterium smegmatis)
molecules and their reported IC50

1. CO[C@H]1CN(c2nc(-c3ncnn3C)c(C(=O)O)s2)CC[C@H]1NC(=O)c1[nH]c(C)c(C#N)c1Br    < 0.25 nM
2. CO[C@H]1CN(c2nc(-c3ncnn3C)c(C(=O)O)s2)CC[C@H]1NC(=O)c1[nH]c(C)c(Br)c1Cl    < 4 nM
3. CCO[C@H]1CN(c2nc(-c3ncnn3C)c(C(=O)O)s2)CC[C@H]1NC(=O)c1[nH]c(C)c(Br)c1Cl    < 2.5 nM

Lookup: So what IC50 did `COCCn1ncnc1-c1nc(N2CC[C@@H](NC(=O)c3[nH]c(C)c(Br)c3Cl)[C@@H](OC)C2)sc1C(=O)O` get with Msmeg (Mycolicibacterium smegmatis)?
Found: < 2.5 nM

Data origin, for the record: patent US20120022107A1
